Taken from the supplement of paper PMC10126150.

The entries below come with measured switch fluorescence ratio values attached.
system: ATP; test: switch fluorescence ratio, 500 uM ATP over buffer (Cy3 cluster intensity, sum of 5 cycles each) (fold (ratio)); higher = stronger signal-on switching upon ATP binding; sequences stand for … in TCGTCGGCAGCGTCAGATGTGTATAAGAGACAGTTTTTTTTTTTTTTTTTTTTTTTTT…TC; conditions: aptamer strand: ATP DNA aptamer (quencher-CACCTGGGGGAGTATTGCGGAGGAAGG + anchor), 100 nM annealed; ATP concentration: 500 uM;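 further: ATP exposure 15 min at 22 °C before imaging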

[
  {
    "sequence.record": "GTTGTGTCTG",
    "switch fluorescence ratio": 0.979
  },
  {
    "sequence.record": "CGCAATGGGG",
    "switch fluorescence ratio": 2.98
  },
  {
    "sequence.record": "TAGTTGAAGG",
    "switch fluorescence ratio": 0.994
  },
  {
    "sequence.record": "ATGGCAAGGT",
    "switch fluorescence ratio": 1.02
  },
  {
    "sequence.record": "TCTTGATCTG",
    "switch fluorescence ratio": 1.02
  },
  {
    "sequence.record": "TATGTACGGG",
    "switch fluorescence ratio": 1.06
  },
  {
    "sequence.record": "TTATGGGGTT",
    "switch fluorescence ratio": 0.999
  },
  {
    "sequence.record": "TGGTCGCGTT",
    "switch fluorescence ratio": 0.988
  },
  {
    "sequence.record": "AAGTCATGGA",
    "switch fluorescence ratio": 1.02
  },
  {
    "sequence.record": "GATCTATGTG",
    "switch fluorescence ratio": 1.01
  }
]

----------
system: ATP; test: switch fluorescence ratio, 500 uM ATP over buffer (Cy3 cluster intensity, sum of 5 cycles each) (fold (ratio)); higher = stronger signal-on switching upon ATP binding; sequences stand for … in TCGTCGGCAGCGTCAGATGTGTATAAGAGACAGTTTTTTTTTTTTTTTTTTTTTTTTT…TC; conditions: aptamer strand: ATP DNA aptamer (quencher-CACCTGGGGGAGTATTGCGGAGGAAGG + anchor), 100 nM annealed; ATP concentration: 500 uM;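 further: ATP exposure 15 min at 22 °C before imaging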
Entry flag: 1 if switch fluorescence ratio reaches 1; 0 if it does not.

[
  {
    "sequence.record": "ATATCCCAGG",
    "measured.on": "ATP",
    "assigned.label": 1
  },
  {
    "sequence.record": "TAACACAGTC",
    "measured.on": "ATP",
    "assigned.label": 1
  },
  {
    "sequence.record": "TCTAAAGGGA",
    "measured.on": "ATP",
    "assigned.label": 1
  },
  {
    "sequence.record": "GGCCGGGGTG",
    "measured.on": "ATP",
    "assigned.label": 1
  },
  {
    "sequence.record": "TCCGAGTTGG",
    "measured.on": "ATP",
    "assigned.label": 1
  },
  {
    "sequence.record": "CGGGACGTGT",
    "measured.on": "ATP",
    "assigned.label": 0
  },
  {
    "sequence.record": "AAAGGACGTG",
    "measured.on": "ATP",
    "assigned.label": 0
  },
  {
    "sequence.record": "TTTCCAGGGA",
    "measured.on": "ATP",
    "assigned.label": 1
  },
  {
    "sequence.record": "AGTCTGGGGC",
    "measured.on": "ATP",
    "assigned.label": 0
  },
  {
    "sequence.record": "CTTATGAGCA",
    "measured.on": "ATP",
    "assigned.label": 1
  },
  {
    "sequence.record": "CAGGTGCGTT",
    "measured.on": "ATP",
    "assigned.label": 1
  },
  {
    "sequence.record": "TGAACGGGTG",
    "measured.on": "ATP",
    "assigned.label": 1
  },
  {
    "sequence.record": "TGCCCGCTGC",
    "measured.on": "ATP",
    "assigned.label": 1
  },
  {
    "sequence.record": "GAGATCGTGC",
    "measured.on": "ATP",
    "assigned.label": 0
  },
  {
    "sequence.record": "TTTTCAGGAG",
    "measured.on": "ATP",
    "assigned.label": 1
  },
  {
    "sequence.record": "CTTTTTTTAG",
    "measured.on": "ATP",
    "assigned.label": 1
  }
]
